Exercise: state measured Ki for each of the compounds provided.
- test_target: recombinant human ALK5 (TGF-βR1) protein (Homo sapiens)
- Construct: purchased Life Technologies PR9075A
- Sequence (P36897 34-503): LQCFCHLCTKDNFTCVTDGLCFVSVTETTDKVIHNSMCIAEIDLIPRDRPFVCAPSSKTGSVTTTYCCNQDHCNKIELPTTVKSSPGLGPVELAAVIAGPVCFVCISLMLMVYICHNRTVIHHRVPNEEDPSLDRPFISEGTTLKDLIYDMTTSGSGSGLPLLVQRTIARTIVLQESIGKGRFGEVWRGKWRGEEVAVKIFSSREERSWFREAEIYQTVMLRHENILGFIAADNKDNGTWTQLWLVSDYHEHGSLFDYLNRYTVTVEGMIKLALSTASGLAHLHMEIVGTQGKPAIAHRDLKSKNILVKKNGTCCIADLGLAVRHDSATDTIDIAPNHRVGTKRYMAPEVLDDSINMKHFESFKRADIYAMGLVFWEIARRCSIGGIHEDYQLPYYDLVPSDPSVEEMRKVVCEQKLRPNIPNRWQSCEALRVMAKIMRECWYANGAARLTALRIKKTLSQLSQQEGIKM
- protocol: Biochemical ALK5 (TGF-βR1) assay to measure pKi (LANCE Ultra ULight kinase assay)
- condition: apparent pKi from pIC50 by Cheng-Prusoff, read-out: ALK5 pKi (converted)

Note Ki for the compound shown: Cc1cccc(-c2[nH]cnc2-c2ccc3ncc(C4=CCC(NCC(CCO)C(=O)O)CC4)cc3c2)n1 (stereo not drawn)
< 0.0316 nM

Note Ki for the compound shown: Cc1cccc(-c2[nH]ncc2-c2ccc3ncc(C(=O)OCCN4CCNCC4)cc3c2)n1
0.0398 to 0.316 nM

Note Ki for the compound shown: CCN1CCN(c2cnc3ccc(-c4c[nH]nc4-c4cccc(C)n4)nc3c2)CC1
0.0398 to 0.316 nM

Note Ki for the compound shown: Cc1cccc(-c2n[nH]cc2-c2ccc3ncc(-c4cnc(N)s4)cc3n2)n1
0.0398 to 0.316 nM

Note Ki for the compound shown: Cc1cccc(-c2[nH]cnc2-c2ccc3ncc(N4CCNC(CC(=O)OC5CCNCC5)C4)cc3c2)n1 (stereo not drawn)
0.398 to 3.16 nM

Note Ki for the compound shown: Cc1cccc(-c2[nH]cnc2-c2ccc3ncc(C4=CCC(C(=O)O[C@@H]5CCN(C)C5)CC4)cc3c2)n1 (stereo partly drawn)
0.0398 to 0.316 nM

Note Ki for the compound shown: Cc1nc(-c2n[nH]cc2-c2ccc3ncc(N4CCN(C(C)C)CC4)cc3n2)ccc1F
< 0.0316 nM

Note Ki for the compound shown: Cc1nc(-c2n[nH]cc2-c2ccc3ncc(NCCN4CCN(C(C)C)CC4)cc3c2)ccc1F
0.0398 to 0.316 nM

Note Ki for the compound shown: Cc1cccc(-c2n[nH]cc2-c2ccc3ncc(N4CC[C@H](N(C)C)C4)cc3c2)n1 (racemic)
< 0.0316 nM

Note Ki for the compound shown: Cc1nc(-c2n[nH]cc2-c2ccc3ncc(-c4cnn([C@H]5CC[C@@H](N)C5)c4)cc3n2)ccc1F (racemic)
< 0.0316 nM

Note Ki for the compound shown: Cc1cccc(-c2[nH]cnc2-c2ccc3ncc(C(=O)O[C@H]4C[C@H](N)C4)cc3c2)n1
0.0398 to 0.316 nM

Note Ki for the compound shown: Cc1cccc(-c2[nH]cnc2-c2ccc3ncc(-c4nc(C(=O)O)cs4)cc3c2)n1
0.0398 to 0.316 nM

Note Ki for the compound shown: CN[C@H]1CC[C@@H](OC(=O)c2cnc3ccc(-c4cn[nH]c4-c4cccc(C)n4)cc3c2)CC1
0.0398 to 0.316 nM

Note Ki for the compound shown: Cc1cccc(-c2nnn(Cc3ccccc3)c2-c2ccc3ncc(NCCN4CCN(C(C)C)CC4)cc3n2)n1
0.0398 to 0.316 nM

Note Ki for the compound shown: Cc1cccc(-c2[nH]cnc2-c2ccc3ncc(C4=C[C@@H](C)N[C@H](C)C4)cc3c2)n1
0.0398 to 0.316 nM

---

- test_target: recombinant human ALK5 (TGF-βR1) protein (Homo sapiens)
- Construct: purchased Life Technologies PR9075A
- protocol: Biochemical ALK5 (TGF-βR1) assay to measure pKi (LANCE Ultra ULight kinase assay)
- condition: apparent pKi from pIC50 by Cheng-Prusoff, read-out: ALK5 pKi (converted)
recorded_endpoint: Ki

Note Ki for the compound shown: CCC(=O)Nc1cnc2ccc(-c3c[nH]nc3-c3cccc(C)n3)nc2c1 [Compound 234]
< 0.0316 nM

Note Ki for the compound shown: Cc1cccc(-c2n[nH]cc2-c2ccc3ncc(N4CCC(N)C4)cc3n2)n1 (centres unmarked) [Compound 626]
< 0.0316 nM

Note Ki for the compound shown: CNc1cnc2ccc(-c3c[nH]nc3-c3cccc(C)n3)nc2c1 [Compound 106]
0.0398 to 0.316 nM

Note Ki for the compound shown: Cc1nc(-c2n[nH]cc2-c2ccc3ncc(-c4nc5c([nH]4)CNCC5)cc3n2)ccc1F [Compound 425]
0.0398 to 0.316 nM

Note Ki for the compound shown: Cc1cccc(-c2n[nH]cc2-c2ccc3ncc(-c4ncc5n4CCNC5)cc3n2)n1 [Compound 143]
0.0398 to 0.316 nM

Note Ki for the compound shown: Cc1cccc(-c2n[nH]cc2-c2ccc3nccc(-c4nc(CO)co4)c3n2)n1 [Compound 852]
0.0398 to 0.316 nM

Note Ki for the compound shown: Cc1cccc(-c2[nH]cnc2-c2ccc3ncc(C(=O)O[C@H]4CCC[C@H](N)C4)cc3c2)n1 (racemic) [Compound 774]
0.398 to 3.16 nM

Note Ki for the compound shown: Cc1cccc(-c2[nH]cnc2-c2ccc3ncc(C4=CCC(NCc5ccccc5)CC4)cc3n2)n1 (centres unmarked) [Compound 228]
0.0398 to 0.316 nM
